System: AK4.4
Test: Cell viability assay (MTT) on AK4.4
Settings: Mus musculus, read-out: IC50, Tc, tioconazole alone, AK4.4 (Table 8)
assay metric: pIC50
Please keep in mind that pIC50 is minus log10 of the molar concentration; only the number is needed.

Task item: Sample Clc1ccc(C(Cn2ccnc2)OCc2ccsc2Cl)c(Cl)c1 (stereo not shown) [tioconazole] — what was its pIC50?
Reply: 4.85

---

For each record, write down the corresponding shATG4B/HCT116 Cell Viability.
Test system: shATG4B/HCT116
Experiment: Cell viability assay on shATG4B/HCT116 (ATG4B silencing strain)
Type: cell-based, human
Settings: remaining viability, 20 μM drug, S strain
Express your answer in %, writing the number without its unit.

Task item: Sample "CO/N=C1\C[C@]2(C[C@@H]3C[C@@H](C/C=C(\C)C[C@@H](C)/C=C/C=C4\CO[C@@H]5[C@H](O)C(C)=C[C@@H](C(=O)O3)[C@]45O)O2)O[C@H](/C(C)=C/C(C)C)[C@H]1C" — what was its shATG4B/HCT116 Cell Viability?
Reply: 0.9

Task item: Same again, this time with "CO[C@H]1C[C@@H]2CC[C@@H](C)[C@@](O)(O2)C(=O)C(=O)N2CCCC[C@H]2C(=O)O[C@H]([C@H](C)C[C@@H]2CC[C@@H](OC(=O)C(C)(CO)CO)[C@H](OC)C2)CC(=O)[C@H](C)/C=C(\C)[C@@H](O)[C@@H](OC)C(=O)[C@H](C)C[C@H](C)/C=C/C=C/C=C/1C"
Reply: 60.5

Task item: Same again, this time with "C#C[C@]1(O)CC[C@H]2[C@@H]3CCc4cc(O)ccc4[C@H]3CC[C@@]21C"
Reply: 69.5

Task item: Same again, this time with "Cc1cc(-c2ccc(/N=N/c3ccc4c(S(=O)(=O)O)cc(S(=O)(=O)O)c(N)c4c3O)c(C)c2)ccc1/N=N/c1ccc2c(S(=O)(=O)O)cc(S(=O)(=O)O)c(N)c2c1O"
Reply: 34.5

Task item: Same again, this time with "CC[C@@]1(O)C[C@H](O[C@H]2C[C@H](N(C)C)[C@H](O[C@H]3C[C@H](O)[C@H](O[C@H]4CCC(=O)[C@H](C)O4)[C@H](C)O3)[C@H](C)O2)c2c(cc3c(c2O)C(=O)c2c(O)cccc2C3=O)[C@H]1C(=O)OC"
Reply: 38.4
